Parameter: Osmolality. Scope: all listed entries.
# experiment.description: Osmolality of API formulations (micro osmometer, triplicate)
# Type: physicochemical
# applied.conditions: Captisol®-Na^+ formulation, 70 mg/mL API Salt in FB equivalent, 1.1 molar equivalent Captisol®-Na^+
The reply should be a number in mOsm/kg, with the unit left off.

Sample answers from the record:
NC1C2CC3CC(C2)CC1C3 (stereo not shown) = 1492.7
C=CCN1CC[C@]23c4c5ccc(O)c4O[C@H]2C(=O)CC[C@@]3(O)[C@H]1C5 = 531.7

Please fill in: Osmolality reported for CC[C@H](C)C[C@H](C)CCCCCCCCC(=O)N[C@H]1C[C@@H](O)[C@@H](NCCN)NC(=O)[C@@H]2[C@@H](O)CCN2C(=O)[C@H]([C@H](O)CCN)NC(=O)[C@H]([C@H](O)[C@@H](O)c2ccc(O)cc2)NC(=O)[C@@H]2C[C@@H](O)CN2C(=O)[C@H]([C@@H](C)O)NC1=O = 209.3

====

# experiment.description: pH of API formulations (pH meter)
# Assay type: physicochemical
# applied.conditions: 1:1 ratio of API to CapAcid, after 2M NaOH
Parameter: final pH. Scope: all listed entries.
Output spec: single numeric token, no unit.

Sample answers from the record:
N=C(N)c1ccc2cc(OC(=O)c3ccc(N=C(N)N)cc3)ccc2c1 [Nafamostat] = 6.99
CN1CCC[C@@H]1Cc1c[nH]c2ccc(CCS(=O)(=O)c3ccccc3)cc12 [eletriptan] = 6.06
CCCN(CCc1cccs1)[C@H]1CCc2c(O)cccc2C1 [rotigotine] = 5.49

Please fill in: final pH reported for COc1c(OCCCN2CCOCC2)ccc2c1N=C(NC(=O)c1cnc(N)nc1)N1CCN=C21 [Copanlisib] = 6.13

====

# experiment.description: pH of API formulations (pH meter)
# Assay type: physicochemical
# applied.conditions: API Salt (70 mg/mL API Salt in FB equivalent) in water
quantity.name: pH
Output spec: single numeric token, no unit.

Sample answers from the record:
NC1C2CC3CC(C2)CC1C3 (stereo not shown) [2-Amantadine] = 6.94
CC[C@H](C)C[C@H](C)CCCCCCCCC(=O)N[C@H]1C[C@@H](O)[C@@H](NCCN)NC(=O)[C@@H]2[C@@H](O)CCN2C(=O)[C@H]([C@H](O)CCN)NC(=O)[C@H]([C@H](O)[C@@H](O)c2ccc(O)cc2)NC(=O)[C@@H]2C[C@@H](O)CN2C(=O)[C@H]([C@@H](C)O)NC1=O [Caspofungin] = 5.86
NC12CC3CC(CC(C3)C1)C2 [1-Amantadine] = 5.67

Shift focus to the following entry.
Please fill in: pH reported for C=CCN1CC[C@]23c4c5ccc(O)c4O[C@H]2C(=O)CC[C@@]3(O)[C@H]1C5 [Naloxone] = 4.39

====

# experiment.description: Reported solubility in water of APIs (freebase and salt)
# Assay type: physicochemical
quantity.name: solubility

Please fill in: solubility reported for CC(N)C12CC3CC(CC(C3)C1)C2 (stereo not shown) = ~20 mg/mL

====

# experiment.description: Osmolality of API formulations (micro osmometer, triplicate)
# Format: physicochemical
# applied.conditions: API Salt (70 mg/mL API Salt in FB equivalent) in water
quantity.name: Osmolality (mOsm/kg)
The reply should be a number in mOsm/kg, with the unit left off.

Sample answers from the record:
CC[C@H](C)C[C@H](C)CCCCCCCCC(=O)N[C@H]1C[C@@H](O)[C@@H](NCCN)NC(=O)[C@@H]2[C@@H](O)CCN2C(=O)[C@H]([C@H](O)CCN)NC(=O)[C@H]([C@H](O)[C@@H](O)c2ccc(O)cc2)NC(=O)[C@@H]2C[C@@H](O)CN2C(=O)[C@H]([C@@H](C)O)NC1=O [Caspofungin] = 94
C=CCN1CC[C@]23c4c5ccc(O)c4O[C@H]2C(=O)CC[C@@]3(O)[C@H]1C5 [Naloxone] = 279
NC12CC3CC(CC(C3)C1)C2 [1-Amantadine] = 832

Please fill in: Osmolality reported for NC1C2CC3CC(C2)CC1C3 (stereo not shown) [2-Amantadine] = 826.7
